Attribution: patent US20160075689A1

Below, each entry is listed with its recorded remaining activity at 1 µM.
Target: UniProt:Q14249
Sequence (Q14249 49-297, species assumed): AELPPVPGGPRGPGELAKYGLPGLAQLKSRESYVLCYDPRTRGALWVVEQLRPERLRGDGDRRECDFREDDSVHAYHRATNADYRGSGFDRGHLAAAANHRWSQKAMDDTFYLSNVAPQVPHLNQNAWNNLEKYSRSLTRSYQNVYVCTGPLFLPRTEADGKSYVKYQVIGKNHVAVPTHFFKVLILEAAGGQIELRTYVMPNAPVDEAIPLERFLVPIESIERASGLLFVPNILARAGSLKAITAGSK
Assay: High-throughput EndoG screening assay
Type: biochemical
Details: 20 min; compound 1 μM; read-out: % EndoG activity in the presence of the compound
Response body: numeric value in %, unit text excluded.

// solved cases for remaining activity at 1 µM follow
- CN1C(=O)C(=Cc2cn(Cc3ccc4ccccc4c3)c3ccc(Cl)cc23)C(=O)N(C)C1=O [PNR-7-3]: 59.1
- Cc1c(C=C2C(=O)NC(=S)NC2=O)c2ccccc2n1C(=O)c1ccc2ccccc2c1 [PNR-6-69]: 31.6
- CN1C(=O)C(=Cc2cn(Cc3ccc4ccccc4c3)c3ccccc23)C(=O)N(C)C1=O [PNR-6-99]: 71.7
- COc1ccc2c(c1)c(C=C1C(=O)NC(=S)NC1=O)cn2C(=O)c1ccc2ccccc2c1 [PNR-3-82]: 21.8
- COc1cc(Cn2c(C)c(C=C3C(=O)NC(=S)NC3=O)c3ccccc32)cc(OC)c1 [PNR-5-96]: 71.5

[in] Consider the compound O=C1NC(=S)NC(=O)C1=Cc1cn(Cc2ccc3ccccc3c2)c2ccc(Cl)cc12 [PNR-7-2] and give its measured remaining activity at 1 µM.
[out] 17.8

[in] Consider the compound O=C1NC(=O)C(=Cc2cn(Cc3cccc4ccccc34)c3ccc(Cl)cc23)C(=O)N1 [PNR-6-88] and give its measured remaining activity at 1 µM.
[out] 22.9

[in] Consider the compound Cc1c(C=C2C(=O)NC(=O)NC2=O)c2ccccc2n1C(=O)c1cccc2ccccc12 [PNR-6-64] and give its measured remaining activity at 1 µM.
[out] 71.7

[in] Consider the compound O=C1NC(=O)C(=Cc2cn(Cc3ccc4ccccc4c3)c3ccc(Cl)cc23)C(=O)N1 [PNR-7-1] and give its measured remaining activity at 1 µM.
[out] 14.8

[in] Consider the compound Cc1c(C=C2C(=O)NC(=S)NC2=O)c2ccccc2n1C(=O)c1cccc2ccccc12 [PNR-6-65] and give its measured remaining activity at 1 µM.
[out] 65

[in] Consider the compound O=C1NC(=S)NC(=O)C1=Cc1cn(Cc2cccc(C(F)(F)F)c2)c2ccc(Cl)cc12 [PNR-7-18] and give its measured remaining activity at 1 µM.
[out] 14.1

[in] Consider the compound COc1ccc2c(c1)c(C=C1C(=O)NC(=O)NC1=O)cn2Cc1cccc2ccccc12 [PNR-6-85] and give its measured remaining activity at 1 µM.
[out] 52.7

[in] Consider the compound O=C1NC(=S)NC(=O)C1=Cc1cn(Cc2cccc3ccccc23)c2ccc(Br)cc12 [PNR-6-92] and give its measured remaining activity at 1 µM.
[out] 8.9

[in] Consider the compound O=C1NC(=O)C(=Cc2cn(Cc3cccc4ccccc34)c3ccc(Br)cc23)C(=O)N1 [PNR-6-91] and give its measured remaining activity at 1 µM.
[out] 12.7

[in] Consider the compound O=C1NC(=O)C(=Cc2cn(Cc3ccccc3Br)c3ccccc23)C(=O)N1 [PNR-7-7] and give its measured remaining activity at 1 µM.
[out] 14.1

[in] Consider the compound COc1ccc2c(c1)c(C=C1C(=O)NC(=O)NC1=O)cn2Cc1ccc2ccccc2c1 [PNR-7-4] and give its measured remaining activity at 1 µM.
[out] 24.7

[in] Consider the compound CN1C(=O)C(=Cc2cn(Cc3cccc4ccccc34)c3ccc(Cl)cc23)C(=O)N(C)C1=O [PNR-6-90] and give its measured remaining activity at 1 µM.
[out] 35.9
